pIC50: −log10 of the molar value.
What follows is a record of pIC50 for Full-length USP19 (Homo sapiens, UniProt O94966).

Here C[C@H](CC(F)(F)F)C(=O)N1CCC(O)(Cn2cnc3c(cnn3C)c2=O)C2(CCCC2)C1 (some centres unmarked) [Example 180] was tested on Full-length USP19 (Homo sapiens, UniProt O94966), and its pIC50 came to 4.30 to 5.30

Here COc1cccc(-c2cc(=O)n(C[C@]3(O)CCN(C(=O)N4CCNC[C@H]4c4ccccc4)CC34CCCC4)cn2)c1 [Example 338] was tested on Full-length USP19 (Homo sapiens, UniProt O94966), and its pIC50 came to > 6.30

Here C[C@H](CC(F)(F)F)C(=O)N1CCC(O)(Cn2cnc3cc(F)ccc3c2=O)C2(CCCC2)C1 (some centres unmarked) [Example 156] was tested on Full-length USP19 (Homo sapiens, UniProt O94966), and its pIC50 came to 4.30 to 5.30
